The following compounds are listed with their measured Antagonism Volume, Result 3 values.
Tested on: HIV-1IIIB
assay.name: Drug combination anti-HIV-1 cytoprotection assay (MacSynergy II) in CEM-SS cells infected with HIV-1IIIB
Format: cell-based
condition.details: in combination with Compound A, 95% confidence interval, assay 3
The answer is to be given in μM^2%; state only the numeric part.

O=C1Nc2ccc(Cl)cc2[C@@](C#CC2CC2)(C(F)(F)F)O1 −7
CC(C)(C)NC(=O)[C@@H]1CN(Cc2cccnc2)CCN1C[C@@H](O)C[C@@H](Cc1ccccc1)C(=O)N[C@H]1c2ccccc2C[C@H]1O −26
Cc1c(O)cccc1C(=O)N[C@@H](CSc1ccccc1)[C@H](O)CN1C[C@H]2CCCC[C@H]2C[C@H]1C(=O)NC(C)(C)C −46
Cc1cn([C@H]2C[C@H](N=[N+]=[N-])[C@@H](CO)O2)c(=O)[nH]c1=O −23

# evaluate next
Exercise: Give the value of Antagonism Volume, Result 3 reported for the following: C[C@H](Cn1cnc2c(N)ncnc21)OCP(=O)(O)O
Solution: −60
